Assay: Toxicokinetics of ZEN-14G in rats after oral and intravenous administration (plasma LC-MS/MS, non-compartmental analysis)
Type: in vivo, Wistar rats
Details: both sexes, Wistar, rat, in vivo, po, 0.75 mg/kg body weight
measured-endpoint: Cmax

>>> value_measured("CC1CCCC(=O)CCC/C=C/c2cc(OC3OC(CO)C(O)C(O)C3O)cc(O)c2C(=O)O1 (stereo not shown) [ZEN-14G, Zearalenone-14-glucoside]")
"0.2 ng/mL"

----------
Experiment: Toxicokinetics of ZEN-14G in rats after oral and intravenous administration (plasma LC-MS/MS, non-compartmental analysis)
Assay type: in vivo, Wistar rats
Conditions: both sexes, Wistar, rat, in vivo, iv, 0.75 mg/kg, i.v., 0.75 mg/kg body weight, read-out: MRT (mean residence time)
measured-endpoint: MRT (min)

>>> value_measured("CC1CCCC(=O)CCC/C=C/c2cc(OC3OC(CO)C(O)C(O)C3O)cc(O)c2C(=O)O1 (stereo not shown) [ZEN-14G, Zearalenone-14-glucoside]")
12

----------
Experiment: Toxicokinetics of ZEN-14G in rats after oral and intravenous administration (plasma LC-MS/MS, non-compartmental analysis)
Assay type: in vivo, Wistar rats
Details: both sexes, Wistar, rat, in vivo, iv, 0.75 mg/kg body weight, mean ± SD, n = 12, read-out: λZ (elimination rate constant) (converted)
measured-endpoint: k el (s⁻¹)

>>> value_measured("CC1CCCC(=O)CCC/C=C/c2cc(OC3OC(CO)C(O)C(O)C3O)cc(O)c2C(=O)O1 (stereo not shown) [ZEN-14G, Zearalenone-14-glucoside]")
0.000883

----------
Assay: Toxicokinetics of ZEN-14G in rats after oral and intravenous administration (plasma LC-MS/MS, non-compartmental analysis)
Assay type: in vivo, Wistar rats
Conditions: both sexes, Wistar, rat, in vivo, po, 0.75 mg/kg body weight, read-out: CL (apparent total body clearance) (converted)
measured-endpoint: CL/F (mL/min/kg)

>>> value_measured("CC1CCCC(=O)CCC/C=C/c2cc(OC3OC(CO)C(O)C(O)C3O)cc(O)c2C(=O)O1 (stereo not shown) [ZEN-14G, Zearalenone-14-glucoside]")
75

----------
Experiment: Toxicokinetics of ZEN-14G in rats after oral and intravenous administration (plasma LC-MS/MS, non-compartmental analysis)
Format: in vivo, Wistar rats
Conditions: both sexes, Wistar, rat, in vivo, po, 0.75 mg/kg body weight
measured-endpoint: Tmax (min)

>>> value_measured("CC1CCCC(=O)CCC/C=C/c2cc(OC3OC(CO)C(O)C(O)C3O)cc(O)c2C(=O)O1 (stereo not shown) [ZEN-14G, Zearalenone-14-glucoside]")
4.98

----------
Experiment: Toxicokinetics of ZEN-14G in rats after oral and intravenous administration (plasma LC-MS/MS, non-compartmental analysis)
Type: in vivo, Wistar rats
Settings: both sexes, Wistar, rat, in vivo, po, 0.75 mg/kg body weight, read-out: Elimination t1/2 (converted)
measured-endpoint: half-life

>>> value_measured("CC1CCCC(=O)CCC/C=C/c2cc(OC3OC(CO)C(O)C(O)C3O)cc(O)c2C(=O)O1 (stereo not shown) [ZEN-14G, Zearalenone-14-glucoside]")
"57.6 min"

----------
Test: Toxicokinetics of ZEN-14G in rats after oral and intravenous administration (plasma LC-MS/MS, non-compartmental analysis)
Format: in vivo, Wistar rats
Conditions: both sexes, Wistar, rat, in vivo, iv, 0.75 mg/kg body weight, read-out: Elimination t1/2 (converted)
measured-endpoint: half-life

>>> value_measured("CC1CCCC(=O)CCC/C=C/c2cc(OC3OC(CO)C(O)C(O)C3O)cc(O)c2C(=O)O1 (stereo not shown) [ZEN-14G, Zearalenone-14-glucoside]")
"13.2 min"
